Biological target: EGFR T790M (human epidermal growth factor receptor T790M mutation) (Homo sapiens (Human), UniProt P00533, T790M)
Sequence (P00533 25-1210 T790M): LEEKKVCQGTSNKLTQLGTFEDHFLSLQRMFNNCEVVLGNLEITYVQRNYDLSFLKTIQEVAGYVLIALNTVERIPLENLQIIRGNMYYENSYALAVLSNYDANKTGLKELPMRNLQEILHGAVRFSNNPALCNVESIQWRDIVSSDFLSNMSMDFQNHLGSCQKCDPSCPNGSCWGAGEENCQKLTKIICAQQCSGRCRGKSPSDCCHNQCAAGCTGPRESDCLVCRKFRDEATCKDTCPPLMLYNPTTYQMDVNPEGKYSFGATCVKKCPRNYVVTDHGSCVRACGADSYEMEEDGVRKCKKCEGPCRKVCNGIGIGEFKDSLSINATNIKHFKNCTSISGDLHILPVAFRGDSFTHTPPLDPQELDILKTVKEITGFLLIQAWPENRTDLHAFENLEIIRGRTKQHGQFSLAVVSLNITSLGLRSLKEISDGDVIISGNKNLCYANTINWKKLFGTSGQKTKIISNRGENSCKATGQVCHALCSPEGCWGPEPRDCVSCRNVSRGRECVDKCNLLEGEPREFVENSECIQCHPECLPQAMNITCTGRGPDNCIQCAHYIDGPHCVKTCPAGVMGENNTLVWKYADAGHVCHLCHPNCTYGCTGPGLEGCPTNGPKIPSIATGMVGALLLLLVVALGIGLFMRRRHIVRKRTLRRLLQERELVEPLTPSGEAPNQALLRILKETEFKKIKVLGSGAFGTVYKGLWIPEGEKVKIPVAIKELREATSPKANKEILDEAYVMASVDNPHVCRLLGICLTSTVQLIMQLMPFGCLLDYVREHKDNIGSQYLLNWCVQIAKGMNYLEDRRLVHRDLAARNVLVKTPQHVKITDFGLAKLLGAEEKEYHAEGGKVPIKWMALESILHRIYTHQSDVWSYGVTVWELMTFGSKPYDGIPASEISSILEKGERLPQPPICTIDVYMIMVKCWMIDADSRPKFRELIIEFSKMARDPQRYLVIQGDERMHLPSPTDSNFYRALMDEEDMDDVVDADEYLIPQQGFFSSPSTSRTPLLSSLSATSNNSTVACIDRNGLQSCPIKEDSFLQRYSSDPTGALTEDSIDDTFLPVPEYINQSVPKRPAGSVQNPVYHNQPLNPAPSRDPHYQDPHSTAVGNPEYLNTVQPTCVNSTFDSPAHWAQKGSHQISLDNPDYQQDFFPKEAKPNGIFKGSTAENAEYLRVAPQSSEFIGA
Assay: In vitro kinase inhibitory activity, EGFR T790M
Format: biochemical
Just a reminder that ties go to label 0: only IC50 strictly below 20 nM counts as label 1.

COc1cc2ncnc(Nc3ccc(OCc4ccccn4)c(Cl)c3)c2cc1NC(=O)/C=C/CN1C[C@@H]2OCCO[C@@H]2C1 | label 1
CCOc1cc2ncnc(Nc3ccc(OCc4cccc(F)c4)c(Cl)c3)c2cc1NC(=O)/C=C/CN1C[C@@H]2OCCO[C@@H]2C1 | label 0
COc1cc2ncnc(Nc3ccc4c(cnn4Cc4cccc(F)c4)c3)c2cc1NC(=O)/C=C/CN1C[C@@H]2OCCO[C@@H]2C1 | label 0
O=C(/C=C/CN1C[C@@H]2OCCO[C@@H]2C1)Nc1cc2c(Nc3ccc(F)c(Cl)c3)ncnc2cc1O[C@H]1CCOC1 | label 1
O=C(/C=C/CN1C[C@@H]2OCCO[C@@H]2C1)Nc1ccc2ncnc(Nc3ccc(OCc4ccccn4)c(Cl)c3)c2c1 | label 0
O=C(/C=C/CN1C[C@@H]2OCCO[C@@H]2C1)Nc1ccc2ncnc(Nc3ccc4c(cnn4Cc4cccc(F)c4)c3)c2c1 | label 0
COCCOc1cc2ncnc(Nc3ccc(F)c(Cl)c3)c2cc1NC(=O)/C=C/CN1C[C@@H]2OCCO[C@@H]2C1 | label 1
O=C(/C=C/CN1C[C@@H]2OCCO[C@@H]2C1)Nc1cc2c(Nc3ccc(F)c(Cl)c3)ncnc2cc1OCC(F)(F)F | label 0

Kindly review the next compound as well.
Q: Input CCOc1cc2ncnc(Nc3ccc(Cl)c(Cl)c3F)c2cc1NC(=O)/C=C/CN1C[C@@H]2OCCO[C@@H]2C1 ; condition: IC50 strictly below 20 nM. Does it hold?
Result: label 1

----------
Give measured bioavailability for each item. Keep answers brief.
Experiment: Rat PK (pharmacokinetics after iv and po administration)
Assay type: in vivo
Settings: male, SD, plasma, po 5 vs iv 2 (g/kg [sic]; mg/kg in method), read-out: F (bioavailability)
One number for each entry, in %.

CCOc1cc2ncnc(Nc3ccc(Cl)c(Cl)c3F)c2cc1NC(=O)/C=C/CN1C[C@@H]2OCCO[C@@H]2C1 | 108
COc1cc2ncnc(Nc3ccc4c(cnn4Cc4cccc(F)c4)c3)c2cc1NC(=O)/C=C/CN1C[C@@H]2OCCO[C@@H]2C1 | 10.8

Quick one: give me bioavailability for each item below, same order please.
1. CCOc1cc2ncnc(Nc3ccc4c(cnn4Cc4cccc(F)c4)c3)c2cc1NC(=O)/C=C/CN1C[C@@H]2OCCO[C@@H]2C1
2. CCOc1cc2ncnc(Nc3ccc(OCc4ccccn4)c(Cl)c3)c2cc1NC(=O)/C=C/CN1C[C@@H]2OCCO[C@@H]2C1
3. COCCOc1cc2ncnc(Nc3ccc(Cl)c(Cl)c3F)c2cc1NC(=O)/C=C/CN1C[C@@H]2OCCO[C@@H]2C1

Result:
1: 41.5; 2: 87.1; 3: 44.5

Q: Record request: bioavailability value, item O=C(/C=C/CN1C[C@@H]2OCCO[C@@H]2C1)Nc1cc2c(Nc3ccc(OCc4ccccn4)c(Cl)c3)ncnc2cc1O[C@H]1CCOC1
Result: 5.94

----------
Test: Rat PK (pharmacokinetics after iv and po administration)
Assay type: in vivo
Details: male, SD, plasma, iv(2 g/kg) [sic], method says 2 mg/kg
Protocol: […] Samples treated with liquid-liquid extraction and chromatographic separation were analyzed by triple quadrupole tandem mass spectrometer in multiple reaction monitoring (MRM) mode for quantitative analysis. […] The content of each test compound in rat plasma after administration was determined by LC/MS/MS. […]
Give measured AUC(0-t) for each item. Keep answers brief.
Answer with the number, then the unit.

In the examples that follow, each entry is paired with its recorded AUC(0-t).
O=C(/C=C/CN1C[C@@H]2OCCO[C@@H]2C1)Nc1cc2c(Nc3ccc(OCc4ccccn4)c(Cl)c3)ncnc2cc1O[C@H]1CCOC1 [Example 25] | 4.53 µg·h/mL
COc1cc2ncnc(Nc3ccc(Cl)c(Cl)c3F)c2cc1NC(=O)/C=C/CN1C[C@@H]2OCCO[C@@H]2C1 [Example 31] | 2.99 µg·h/mL
CCOc1cc2ncnc(Nc3ccc(Cl)c(Cl)c3F)c2cc1NC(=O)/C=C/CN1C[C@@H]2OCCO[C@@H]2C1 [Example 32] | 2.17 µg·h/mL
COc1cc2ncnc(Nc3ccc(OCc4ccccn4)c(Cl)c3)c2cc1NC(=O)/C=C/CN1C[C@@H]2OCCO[C@@H]2C1 [Example 23] | 7.56 µg·h/mL
CCOc1cc2ncnc(Nc3ccc(OCc4ccccn4)c(Cl)c3)c2cc1NC(=O)/C=C/CN1C[C@@H]2OCCO[C@@H]2C1 [Example 24] | 10.5 µg·h/mL
O=C(/C=C/CN1C[C@@H]2OCCO[C@@H]2C1)Nc1cc2c(Nc3ccc(Cl)c(Cl)c3F)ncnc2cc1O[C@H]1CCOC1 [Example 34] | 0.951 µg·h/mL
CCOc1cc2ncnc(Nc3ccc4c(cnn4Cc4cccc(F)c4)c3)c2cc1NC(=O)/C=C/CN1C[C@@H]2OCCO[C@@H]2C1 [Example 28] | 0.692 µg·h/mL
COc1cc2ncnc(Nc3ccc4c(cnn4Cc4cccc(F)c4)c3)c2cc1NC(=O)/C=C/CN1C[C@@H]2OCCO[C@@H]2C1 [Example 27] | 1.19 µg·h/mL

Quick one: give me AUC(0-t) for each item below, same order please.
1. COCCOc1cc2ncnc(Nc3ccc(Cl)c(Cl)c3F)c2cc1NC(=O)/C=C/CN1C[C@@H]2OCCO[C@@H]2C1 [Example 33]
2. [2H]C([2H])([2H])Oc1cc2ncnc(Nc3ccc(F)c(Cl)c3)c2cc1NC(=O)/C=C/CN1C[C@@H]2OCCO[C@@H]2C1 [Example 20]

Result:
1: 1.25 µg·h/mL; 2: 1.45 µg·h/mL

----------
Give measured IC50 for each item. Keep answers brief.
Target: EGFR (human epidermal growth factor receptor) (Homo sapiens (Human), UniProt P00533)
Sequence (P00533 25-1210): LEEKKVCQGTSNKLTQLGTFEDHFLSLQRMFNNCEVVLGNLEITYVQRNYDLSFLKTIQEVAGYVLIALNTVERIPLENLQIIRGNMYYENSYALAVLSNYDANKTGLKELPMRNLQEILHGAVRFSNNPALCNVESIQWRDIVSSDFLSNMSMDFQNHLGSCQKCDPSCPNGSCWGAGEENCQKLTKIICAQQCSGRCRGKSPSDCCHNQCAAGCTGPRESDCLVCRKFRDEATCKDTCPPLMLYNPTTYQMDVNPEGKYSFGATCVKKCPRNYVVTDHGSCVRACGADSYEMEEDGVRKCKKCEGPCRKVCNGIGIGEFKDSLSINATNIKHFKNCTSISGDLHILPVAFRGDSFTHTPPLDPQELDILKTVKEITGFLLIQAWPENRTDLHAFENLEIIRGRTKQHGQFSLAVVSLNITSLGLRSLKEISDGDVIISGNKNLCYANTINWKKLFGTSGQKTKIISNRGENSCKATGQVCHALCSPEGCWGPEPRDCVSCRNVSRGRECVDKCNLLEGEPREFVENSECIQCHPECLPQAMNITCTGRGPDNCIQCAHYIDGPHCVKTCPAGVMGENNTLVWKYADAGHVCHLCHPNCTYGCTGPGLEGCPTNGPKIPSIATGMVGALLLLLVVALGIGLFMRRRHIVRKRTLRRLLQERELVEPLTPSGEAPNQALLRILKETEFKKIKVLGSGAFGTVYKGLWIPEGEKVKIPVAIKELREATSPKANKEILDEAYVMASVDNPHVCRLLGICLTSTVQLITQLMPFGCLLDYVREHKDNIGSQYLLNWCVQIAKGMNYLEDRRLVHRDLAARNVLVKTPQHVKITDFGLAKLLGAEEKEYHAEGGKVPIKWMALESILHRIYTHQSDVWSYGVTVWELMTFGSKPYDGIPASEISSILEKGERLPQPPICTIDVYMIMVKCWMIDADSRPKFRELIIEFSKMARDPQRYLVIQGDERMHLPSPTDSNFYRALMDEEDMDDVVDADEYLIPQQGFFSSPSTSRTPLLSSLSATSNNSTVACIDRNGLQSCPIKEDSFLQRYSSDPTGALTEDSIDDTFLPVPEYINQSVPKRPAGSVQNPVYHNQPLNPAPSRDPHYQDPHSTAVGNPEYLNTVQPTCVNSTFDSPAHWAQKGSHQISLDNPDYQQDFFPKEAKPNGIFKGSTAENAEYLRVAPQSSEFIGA
Test: In vitro kinase inhibitory activity, EGFR
Type: biochemical
Description: Stop buffer was prepared from 100 mM HEPES, pH 7.5, 0.015% Brij-35, 0.2% Coating Reagent #3, and 50 mM EDTA. […] Multifunctional microplate reader (BMG LABTECH, PHER Astar FS) with a 320 nm excitation wavelength was used to read and collected the data of by absorbing light at […], which was converted from the rate of 665 signal/620 signal. […]
Answer with the number, then the unit.

O=C(/C=C/CN1C[C@@H]2OCCO[C@@H]2C1)Nc1cc2c(Nc3ccc(OCc4ccccn4)c(Cl)c3)ncnc2cc1O[C@H]1CCOC1 | 8.6 nM
O=C(/C=C/CN1C[C@@H]2OCCO[C@@H]2C1)Nc1ccc2ncnc(Nc3ccc(OCc4cccc(F)c4)c(Cl)c3)c2c1 | 15 nM
O=C(/C=C/CN1C[C@@H]2OCCO[C@@H]2C1)Nc1ccc2ncnc(Nc3ccc(OCc4ccccn4)c(Cl)c3)c2c1 | 22 nM

# next molecule below
Q: Record request: IC50 value, item O=C(/C=C/CN1C[C@@H]2OCCO[C@@H]2C1)Nc1cc2c(Nc3ccc(Cl)c(Cl)c3F)ncnc2cc1O[C@H]1CCOC1
Result: 3.3 nM

----------
Assay: Rat PK (pharmacokinetics after iv and po administration)
Format: in vivo
Conditions: male, SD, plasma, po(5 g/kg) [sic], method says 5 mg/kg
Method: […] Samples treated with liquid-liquid extraction and chromatographic separation were analyzed by triple quadrupole tandem mass spectrometer in multiple reaction monitoring (MRM) mode for quantitative analysis. […] The content of each test compound in rat plasma after administration was determined by LC/MS/MS. […]
Outcome Measure: AUC(0-t) (ng·h/mL)
Numbers only, in ng·h/mL.

COc1cc2ncnc(Nc3ccc(OCc4ccccn4)c(Cl)c3)c2cc1NC(=O)/C=C/CN1C[C@@H]2OCCO[C@@H]2C1 | 13900

Quick one: give me AUC(0-t) for each item below, same order please.
1. COc1cc2ncnc(Nc3ccc(Cl)c(Cl)c3F)c2cc1NC(=O)/C=C/CN1C[C@@H]2OCCO[C@@H]2C1
2. COc1cc2ncnc(Nc3ccc4c(cnn4Cc4cccc(F)c4)c3)c2cc1NC(=O)/C=C/CN1C[C@@H]2OCCO[C@@H]2C1
3. COCCOc1cc2ncnc(Nc3ccc(Cl)c(Cl)c3F)c2cc1NC(=O)/C=C/CN1C[C@@H]2OCCO[C@@H]2C1

Result:
6980
303
1370
